test system: NCI-H226 lung; experiment: NCI-60 one-dose screen, 48 h; details: 10 µM unless noted
About 83,000 compounds went through this panel and 20% of them were active in at least one assay; those are over-represented in the sample as a whole. Calls of active or inactive are those of the source. Rule for the calls: active = growth percent below 10; inactive = the rest.
One label from this list, please: active, inactive

Before answering, review these 6 worked examples.
>>> cat("CCc1ccc(C2=C(O)C(=O)C(c3ccc(CC)cc3)=C(O)C2=O)cc1")
"active"
>>> cat("Cc1ccc(-c2cc3c(SCC(=O)Nc4cc(C(F)(F)F)ccc4Cl)nccn3n2)cc1")
"inactive"
>>> cat("CC(=O)C(C(C)=O)C(c1ccccc1)C(C(C)=O)C(C)=O")
"inactive"
>>> cat("CCCCCCCCCCCC[n+]1ccccc1")
"inactive"
>>> cat("Nc1cc(C(F)(F)F)c(-c2cc(N3CCOCC3)nc(N3CCOCC3)n2)cn1")
"active"
>>> cat("COC(=O)[C@]12CC[C@@H](C)[C@H](C)[C@@H]1C1=CC[C@@H]3[C@@]4(C)C(C#N)=CC(C)=C4CC[C@@]3(C)[C@]1(C)CC2")
"inactive"

Could you check what this test reported for N#Cc1cc2[nH]c3ccc(OC(F)(F)F)cc3c2oc1=O ?
inactive

Could you check what this test reported for O=C1CSC(c2c(F)cccc2Cl)N1NC(=O)C(O)(c1ccccc1)c1ccccc1 (stereo not given) ?
inactive

Could you check what this test reported for CCNCCNc1cc(-c2ccc(Cl)c(Cl)c2)c(C#N)c2nc3ccccc3n12 ?
active

Could you check what this test reported for Cc1c(CN2CCN(C(=O)[C@H](C)O)CC2)sc2c(N3CCOCC3)nc(-c3cnc(N)nc3)nc12 ?
active
